Test: Intrinsic clearance in human liver microsomes
Settings: liver microsomes
Hi there, I'd appreciate the recorded microsomal CLint for every entry that follows.

Recorded result, CCN(CC)S(=O)(=O)c1ccc(-c2cc(C(F)(F)F)ccc2OCC(=O)O)cc1 , microsomal CLint: 9 µL/min/mg

Recorded result, Cc1ccc(OCC(=O)O)c(-c2ccccc2)c1 , microsomal CLint: 12 µL/min/mg

Recorded result, CCS(=O)(=O)c1ccc(-c2cc(C(F)(F)F)ccc2OCC(N)=O)c(C)c1 , microsomal CLint: < 3 µL/min/mg

Recorded result, CCS(=O)(=O)c1ccc(-c2cc(C(F)(F)F)ccc2OCC(=O)O)c(Cl)c1 , microsomal CLint: < 3 µL/min/mg

Recorded result, CS(=O)(=O)c1ccc(-c2cc(C(F)(F)F)ccc2OCC(=O)O)cc1 , microsomal CLint: < 3 µL/min/mg

Recorded result, O=C(O)COc1ccc(Br)cc1-c1ccccc1 , microsomal CLint: < 3 µL/min/mg

Recorded result, CCS(=O)(=O)c1ccc(-c2cc(C(F)(F)F)ccc2CCC(=O)O)c(C)c1 , microsomal CLint: < 4 µL/min/mg

Recorded result, N#Cc1ccc(OCC(=O)O)c(-c2ccccc2)c1 , microsomal CLint: 6 µL/min/mg

Recorded result, CS(=O)(=O)c1ccc(OCC(=O)O)c(-c2ccccc2)c1 , microsomal CLint: < 3 µL/min/mg

Recorded result, CCCCOc1ccccc1-c1cc(C(F)(F)F)ccc1OCC(=O)O , microsomal CLint: 6 µL/min/mg

Recorded result, N#Cc1cccc(-c2cc(C(F)(F)F)ccc2OCC(=O)O)c1 , microsomal CLint: < 3 µL/min/mg

###

Target: Prostaglandin D2 receptor 2 (Homo sapiens)
Sequence (Q9Y5Y4 whole entry): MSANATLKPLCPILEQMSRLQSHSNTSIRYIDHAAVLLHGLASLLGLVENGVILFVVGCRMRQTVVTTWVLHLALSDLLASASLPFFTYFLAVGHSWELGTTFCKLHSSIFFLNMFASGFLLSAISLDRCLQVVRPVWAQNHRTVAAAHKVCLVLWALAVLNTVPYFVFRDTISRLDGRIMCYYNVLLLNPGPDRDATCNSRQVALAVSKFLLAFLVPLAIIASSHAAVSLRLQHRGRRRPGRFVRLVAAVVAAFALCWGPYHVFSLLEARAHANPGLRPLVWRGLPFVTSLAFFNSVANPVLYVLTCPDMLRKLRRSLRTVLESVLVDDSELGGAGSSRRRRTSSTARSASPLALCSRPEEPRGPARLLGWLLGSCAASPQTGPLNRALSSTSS
Test: Displacement of [3H]-PGD2 from CRTh2 receptor by scintillation proximity assay
pIC50: −log10 of the molar value.
Classes by pIC50: low: < 7; medium: ≥ 7 and < 9; high: ≥ 9

**Q:** Looking at CS(=O)(=O)c1ccc(-c2cc(C(F)(F)F)ccc2OCC(=O)O)cc1 , which class would you pick?
**A:** medium

**Q:** Looking at O=C(O)COc1ccc(C(F)(F)F)cc1-c1ccc(Cl)cc1 , which class would you pick?
**A:** medium

**Q:** Looking at O=C(O)COc1ccc(C(F)(F)F)cc1-c1ccccc1-c1ccccc1 , which class would you pick?
**A:** medium

**Q:** Looking at O=C(O)COc1ccc(Cl)cc1-c1ccccc1 , which class would you pick?
**A:** low

**Q:** Looking at N#Cc1ccc(F)c(-c2cc(C(F)(F)F)ccc2OCC(=O)O)c1 , which class would you pick?
**A:** high

**Q:** Looking at N#Cc1cccc(-c2cc(C(F)(F)F)ccc2OCC(=O)O)c1 , which class would you pick?
**A:** high

**Q:** Looking at COc1ccc(-c2cc(C(F)(F)F)ccc2OCC(=O)O)cc1 , which class would you pick?
**A:** low

**Q:** Looking at CCCCOc1ccccc1-c1cc(C(F)(F)F)ccc1OCC(=O)O , which class would you pick?
**A:** medium

Sourced from ChEMBL document CHEMBL1777748
